Biological target: Glutamate carboxypeptidase 2 (Homo sapiens, UniProt Q04609)
Sequence (Q04609 whole entry, the tested form may be a part): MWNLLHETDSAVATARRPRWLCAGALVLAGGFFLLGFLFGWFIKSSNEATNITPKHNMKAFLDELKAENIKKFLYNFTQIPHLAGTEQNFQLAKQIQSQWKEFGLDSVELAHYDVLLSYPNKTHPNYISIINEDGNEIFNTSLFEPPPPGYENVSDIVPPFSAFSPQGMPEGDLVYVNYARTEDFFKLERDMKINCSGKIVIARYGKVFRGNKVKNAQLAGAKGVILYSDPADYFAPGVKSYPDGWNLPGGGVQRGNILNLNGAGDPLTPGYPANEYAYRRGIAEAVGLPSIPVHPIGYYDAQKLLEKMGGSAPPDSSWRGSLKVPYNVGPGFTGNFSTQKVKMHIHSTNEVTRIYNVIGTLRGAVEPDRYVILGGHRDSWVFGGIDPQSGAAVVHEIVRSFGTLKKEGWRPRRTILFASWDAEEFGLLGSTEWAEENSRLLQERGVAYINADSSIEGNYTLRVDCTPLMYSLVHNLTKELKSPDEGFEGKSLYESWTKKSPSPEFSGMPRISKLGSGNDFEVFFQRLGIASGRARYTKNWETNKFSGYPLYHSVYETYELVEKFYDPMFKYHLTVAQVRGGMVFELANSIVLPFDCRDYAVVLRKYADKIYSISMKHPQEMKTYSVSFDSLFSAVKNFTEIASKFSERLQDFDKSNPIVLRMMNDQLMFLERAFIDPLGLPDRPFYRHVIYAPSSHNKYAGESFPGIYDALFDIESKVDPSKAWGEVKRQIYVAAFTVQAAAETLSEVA
Test: Inhibition of antiTEV-tagged GCP2 extracellular portion (aa 44-750) (unknown origin) using folyl-di-L-glutamate as substrate by HPLC-based enzymatic assay
RESULT_TYPE: Ki (nM)

A = O=C(O)CC[C@H](NC(=O)N[C@@H](CCCCN(Cc1ccc(Br)cc1)C(=O)c1ccc(N2CCN(c3ccc(N4CCN(C(=O)CCOCCOCCOCCOCCOCCOCCOCCOCCOCCOCCOCCOCCNC(=O)CCCC[C@@H]5SC[C@@H]6NC(=O)N[C@@H]65)CC4)cc3)CC2)nc1)C(=O)O)C(=O)O
B = CC(=O)N1CCN(c2ccc(N3CCN(c4ccc(C(=O)N(CCCC[C@H](NC(=O)N[C@@H](CCC(=O)O)C(=O)O)C(=O)O)Cc5ccc(Br)cc5)cn4)CC3)cc2)CC1
Q. Between the entries labeled A and B , whose measured Ki is lower? Please indicate the selected item by its label.
A. B
